Please go through the items and note down their SGF.
assay: Stability in Simulated Gastric Fluid (SGF); format: in vitro ADME; set-up: key: % parent compound remaining relative to 0-minute sample; settings: % remaining @ 1 h
Give your result in %@ 1 h as a bare value.

Input: Input `CC(C)C[C@@H](N)C(=O)OCSc1nc(=O)c2c(ccn2COC(=O)[C@H](N)CC(C)C)n1CCOC(C)C.O=C(O)C(F)(F)F.O=C(O)C(F)(F)F` , output reported SGF.
Output: 99

Input: Determine its reported SGF: `CC(C)C[C@H](NC(=O)OC(C)(C)C)C(=O)OCn1c(=O)c2c(ccn2COC(=O)[C@H](CC(C)C)NC(=O)OC(C)(C)C)n(CCOC(C)C)c1=S`
Output: 99

Input: Note down SGF recorded for `CC(C)OCCn1c(=S)[nH]c(=O)c2c1ccn2COC(=O)CCCCOC(=O)CNC(=O)OC(C)(C)C`
Output: 97

Input: Given the molecule `CC(C)C[C@@H](NC(=O)OC(C)(C)C)C(=O)OCn1c(=O)c2c(ccn2COC(=O)[C@@H](CC(C)C)NC(=O)OC(C)(C)C)n(CCOC(C)C)c1=S` , write its reported SGF.
Output: 34

Input: Respond only with SGF recorded for `CC(C)C[C@H](N)C(=O)OCSc1nc(=O)c2c(ccn2COC(=O)[C@@H](N)CC(C)C)n1CCOC(C)C.O=C(O)C(F)(F)F.O=C(O)C(F)(F)F`
Output: 92

* * *

Answer each item with its documented human Plasma stability.
assay: Plasma Stability; type: in vitro ADME, human; conditions: % remaining at 1 h in human plasma

Input: Provide only the value of recorded human Plasma stability for CC(C)OCCn1c(=S)[nH]c(=O)c2c1ccn2COC(=O)CCNC(=O)C1CCCN1C(=O)OC(C)C.O=C(O)C(F)(F)F (centres unmarked)
Output: 100%

Input: Provide only the value of recorded human Plasma stability for `CC(C)OCCn1c(=S)[nH]c(=O)c2c1ccn2COC(=O)CCNC(=O)[C@H](CO)NC(=O)OC(C)(C)C.O=C(O)C(F)(F)F`
Output: 51% remaining

Input: Give the measured human Plasma stability for `CC(C)OCCn1c(SCOC(=O)OCCOCCNC(=O)OC(C)(C)C)nc(=O)c2c1ccn2COC(=O)OCCOCCNC(=O)OC(C)(C)C`
Output: 34% remaining

Input: For `CC(C)OCCn1c(=S)[nH]c(=O)c2c1ccn2COC(=O)CCCCNC(=O)[C@@H]1CCC(=O)N1C.O=C(O)C(F)(F)F` , write its human Plasma stability.
Output: 0% remaining

Input: For the compound `CC(C)OCCn1c(=S)[nH]c(=O)c2c1ccn2COC(=O)CCCCNC(=O)[C@@H](N)CCc1ccccc1.O=C(O)C(F)(F)F` , give its measured human Plasma stability value.
Output: 1% remaining

Input: Return the recorded human Plasma stability value; entry: `CC(C)OCCn1c(=S)[nH]c(=O)c2c1ccn2COC(=O)CCCCNC(=O)[C@@H](N)Cc1ccc(O)cc1.O=C(O)C(F)(F)F`
Output: 1% remaining

Input: Look up and report measured human Plasma stability for this entry: `CC(C)OCCn1c(SCOC(=O)OCCOCCN)nc(=O)c2c1ccn2COC(=O)OCCOCCN.O=C(O)C(F)(F)F.O=C(O)C(F)(F)F`
Output: 28% remaining

Input: Consider the compound `CC(C)OCCn1c(=S)[nH]c(=O)c2c1ccn2COC(=O)CCNC(=O)[C@@H](N)C(C)C.O=C(O)C(F)(F)F` . State its measured human Plasma stability.
Output: 55% remaining

Input: Please list human Plasma stability recorded for the compound `CC(C)OCCn1c(=S)[nH]c(=O)c2c1ccn2COC(=O)CCCCNC(=O)[C@@H](N)CO.O=C(O)C(F)(F)F`
Output: 16% remaining

Input: State its human Plasma stability for this compound: `CC(C)OCCn1c(=S)[nH]c(=O)c2c1ccn2COC(=O)CCCCNC(=O)[C@H](CO)NC(=O)OC(C)(C)C.O=C(O)C(F)(F)F`
Output: 21% remaining

Input: Answer with the recorded human Plasma stability of `CC(C)OCCn1c(=S)[nH]c(=O)c2c1ccn2COC(=O)CCNC(=O)CN(C)C(=O)OC(C)(C)C.O=C(O)C(F)(F)F` only.
Output: 74% remaining

Input: Give a short answer stating reported human Plasma stability for `CC[C@H](C)[C@H](NC(=O)OC(C)(C)C)C(=O)NCCC(=O)OCn1ccc2c1c(=O)[nH]c(=S)n2CCOC(C)C` .
Output: 93% remaining

Input: Specify human Plasma stability for `CSCC[C@H](N)C(=O)NCCCCC(=O)OCn1ccc2c1c(=O)[nH]c(=S)n2CCOC(C)C.O=C(O)C(F)(F)F` and stop.
Output: 1% remaining

Input: Quick one: give measured human Plasma stability for `CC(C)C[C@H](NC(=O)OC(C)(C)C)C(=O)NCCCCC(=O)OCn1ccc2c1c(=O)[nH]c(=S)n2CCOC(C)C`
Output: 32% remaining

Input: Give the value of human Plasma stability reported for the following: `CC(C)OCCn1c(SCOC(=O)C2CCN(C(=O)OC(C)(C)C)CC2)nc(=O)c2c1ccn2COC(=O)CCC(=O)OC(C)(C)C`
Output: 1% remaining

Input: Provide only the value of recorded human Plasma stability for `CC(C)OCCn1c(=S)[nH]c(=O)c2c1ccn2COC(=O)CCNC(=O)[C@@H](N)CCc1ccccc1.O=C(O)C(F)(F)F`
Output: 96% remaining

Input: Report human Plasma stability for `CC(C)OCCn1c(=S)n(COC(=O)C2CCN(C(=O)OC(C)(C)C)CC2)c(=O)c2c1ccn2COC(=O)CCC(=O)OC(C)(C)C`
Output: 11% remaining

Input: Output measured human Plasma stability for this item: `CSCC[C@H](NC(=O)OCC1c2ccccc2-c2ccccc21)C(=O)NCCCCC(=O)OCn1ccc2c1c(=O)[nH]c(=S)n2CCOC(C)C.O=C(O)C(F)(F)F`
Output: 64% remaining

Input: Determine its reported human Plasma stability: `CC(C)OCCn1c(=S)[nH]c(=O)c2c1ccn2COC(=O)CCCCNC(=O)[C@@H]1CCC(=O)N1C(=O)OCc1ccccc1.O=C(O)C(F)(F)F`
Output: 21% remaining

Input: For the compound CCOC(=O)N1CCCC1C(=O)NCCC(=O)OCn1ccc2c1c(=O)[nH]c(=S)n2CCOC(C)C.O=C(O)C(F)(F)F (centres unmarked) , give its reported human Plasma stability.
Output: 75% remaining

* * *

assay: Stability in Simulated Intestinal Fluid (SIF); assay type: in vitro ADME; set-up: key: % parent compound remaining relative to 0-minute sample; conditions: % remaining @ 1 h
Measure name: SIF (%@ 1 h)
Write it as a number; the unit %@ 1 h goes unstated.

Input: Quickly give me recorded SIF for `CC(C)C[C@@H](NC(=O)OC(C)(C)C)C(=O)OCn1c(=O)c2c(ccn2COC(=O)[C@@H](CC(C)C)NC(=O)OC(C)(C)C)n(CCOC(C)C)c1=S`
Output: 0

Input: Quick one: give measured SIF for `CC(C)C[C@@H](N)C(=O)OCn1c(=O)c2c(ccn2COC(=O)[C@H](N)CC(C)C)n(CCOC(C)C)c1=S.O=C(O)C(F)(F)F.O=C(O)C(F)(F)F`
Output: 9

Input: Give reported SIF value for `CC(C)C[C@@H](NC(=O)OC(C)(C)C)C(=O)OCn1ccc2c1c(=O)[nH]c(=S)n2CCOC(C)C`
Output: 30

Input: Give me measured SIF, please, for this compound: `CC(C)C[C@H](N)C(=O)OCn1ccc2c1c(=O)n(CO)c(=S)n2CCOC(C)C.O=C(O)C(F)(F)F`
Output: 52

Input: Provide only the value of recorded SIF for `CC(C)C[C@H](NC(=O)OC(C)(C)C)C(=O)OCSc1nc(=O)c2c(ccn2COC(=O)[C@H](CC(C)C)NC(=O)OC(C)(C)C)n1CCOC(C)C`
Output: 5

* * *

Kindly state SGF for each of the entries shown.
assay: Stability in Simulated Gastric Fluid (SGF); format: in vitro ADME; set-up: key: % parent compound remaining relative to 0-minute sample; details: % remaining at 1 h; SGF with pepsin pH 1.2, 2 μg/mL, 37° C.
Give the quantity in %, number only.

Input: Name the recorded SGF of the molecule listed here: `Cc1ccccc1S(=O)(=O)n1ccc2c1c(=O)[nH]c(=S)n2CCOC(C)C`
Output: 90

Input: Give the measured SGF for `CC(C)OCCn1c(=S)[nH]c(=O)c2c1ccn2COP(=O)(O)O`
Output: 91

* * *

experiment: Stability in Simulated Intestinal Fluid (SIF); format: in vitro ADME; design: key: % parent compound remaining relative to 0-minute sample; settings: % remaining at 1 h in simulated intestinal fluid; the 15th table
Measure name: SIF (% @ 1 h)
Write it as a number; the unit % @ 1 h goes unstated.

Input: Please supply the value of reported SIF for the item CC(C)CNC(=O)OCSc1nc(=O)c2[nH]ccc2n1CCOC(C)C [Example 186]
Output: 100

Input: Identify the reported SIF for the following entry. CCCNC(=O)OCSc1nc(=O)c2c(ccn2C(=O)NCCC)n1CCOC(C)C [Example 184]
Output: 86
